# test target: Histone-lysine N-methyltransferase SUV39H2 (Human)
# Sequence (Q9H5I1 whole entry): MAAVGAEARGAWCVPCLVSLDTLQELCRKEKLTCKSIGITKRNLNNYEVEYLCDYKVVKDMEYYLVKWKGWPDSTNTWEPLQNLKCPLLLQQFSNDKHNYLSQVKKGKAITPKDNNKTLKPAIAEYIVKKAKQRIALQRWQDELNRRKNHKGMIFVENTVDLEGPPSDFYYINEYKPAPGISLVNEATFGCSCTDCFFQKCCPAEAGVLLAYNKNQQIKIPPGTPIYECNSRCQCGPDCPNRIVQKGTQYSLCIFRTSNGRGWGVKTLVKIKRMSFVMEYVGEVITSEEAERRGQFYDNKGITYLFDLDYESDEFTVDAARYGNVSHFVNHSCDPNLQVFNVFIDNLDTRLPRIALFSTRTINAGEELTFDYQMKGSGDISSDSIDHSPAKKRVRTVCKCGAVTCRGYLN
# test name: Suv 39H2 Assay
Rule for this label: label 1 means IC50 is less than 7 nM; label 0 means IC50 is at least 7 nM.

QUERY: A record lists `COc1cc(CO)c(-c2cn3ccc(N4CCN(CCNC(=O)OC(C)(C)C)CC4)cc3n2)cc1Cl` . Is its IC50 below 7 nM?
RESULT: label 0

QUERY: Check if IC50 falls below 7 nM for `COc1cc(CO)c(-c2cn3ccc(N4CCC(NS(=O)(=O)N(C)C)CC4)cc3n2)cc1Cl` .
RESULT: label 0

QUERY: Could you please tell me whether IC50 recorded for `CCCS(=O)(=O)NC1CCN(c2ccn3cc(-c4cc(Cl)c(OC)cc4CO)nc3c2)CC1` is less than 7 nM?
RESULT: label 0

QUERY: # TODO verify IC50 < 7 nM strictly for this compound: COc1cc(CO)c(-c2cn3ccc(N4CCC(NC(N)=O)C4)cc3n2)cc1Cl (centres undefined)
RESULT: label 1

QUERY: Hi there! Is IC50 for `COc1cc(CO)c(-c2cn3ccc(OC4CCN(S(=O)(=O)c5cccs5)CC4)cc3n2)cc1Cl` below 7 nM, do you know?
RESULT: label 0

QUERY: Given the entry COc1cc(CO)c(-c2cn3ccc(N4CCN(P(=O)(CO)OC)CC4)cc3n2)cc1Cl (centres undefined) , would its reported IC50 be below 7 nM?
RESULT: label 1

QUERY: In the record for `COc1cc(CO)c(-c2cn3ccc(N4CCN(S(=O)(=O)C(C)C)CC4)cc3n2)cc1Cl` , is IC50 less than 7 nM?
RESULT: label 0

QUERY: Please indicate whether the reported IC50 of `COc1cc(CO)c(-c2cn3ccc(N4CC[C@H](N)C4)cc3n2)cc1Cl` is strictly below 7 nM.
RESULT: label 0
